- Measured Target: Cytochrome P450 2C9 (Homo sapiens)
- Experiment Summary: Cytochrome P450 Family 2 Subfamily C Member 9 (CYP2C9) small molecule antagonists: luciferase reporter qHTS assay (AID 1671198); further: nearly all actives have a fitted effect of over 50% in size
- Test Parameters: P450-Glo CYP2C9 enzyme assay, luciferin luminescence; series mostly up to 115 µM
Results filed as inconclusive are left out. Activity calls are given as the source filed them. The call rests on the fitted dose curve; in most records, active means well fitted inhibition curve with a large enough effect in the repeat runs; inconclusive means weak or mixed curves; inactive means no such curve, though single readings can be large or run the other way.
Result category, one only: active, inactive

Below, 3 compounds whose answers are already recorded.
CC1=NN(c2cc(S(=O)(=O)O)ccc2Cl)C(=O)C1N=Nc1ccccc1 (stereo not drawn) = inactive
C=C(C)C(=O)OCCOCCOCCOCCOC(=O)C(=C)C = active
COCCOCC(OC)OC = inactive

Hey, what did the test say about C=CCCC(=O)O ?
inactive

Here is the next compound: O=C(O)CCCC[P+](c1ccccc1)(c1ccccc1)c1ccccc1
inactive

Here is the next compound: O=CN(CCO)CCO
inactive

Here is the next compound: CCOc1c(N2CCOCC2)cnn(C)c1=O
inactive

Here is the next compound: O=C(O)CNC(=O)c1ccccc1
inactive
